test system: MDA-MB-468 breast; test: NCI-60 one-dose screen, 48 h (100 = growth as untreated, 0 = no growth, -100 = all killed); settings: 10 µM unless noted
Compounds without any hit were thinned out: in the full panel of roughly 83,000, 20% have a hit.
Label 0 if growth falls below 80%; label 1 in every other case.

>>> group("NC1=NN(c2ccccc2)C(=O)/C1=C/c1ccc(Cl)cc1")
1
>>> group("C=C(C)[C@@H]1CC[C@]2(C(=O)NC3CCCCC3)CC[C@]3(C)[C@H](CC[C@@H]4[C@@]5(C)CCCNC(C)(C)[C@@H]5CC[C@]43C)[C@@H]12")
0
>>> group("CCOC(=O)c1cc(-c2ccc([N+](=O)[O-])cc2)n(-c2ccc(C(=O)O)c(O)c2)c1C")
0
>>> group("C#C[C@@]1(O)[C@@H](CO)O[C@@H](n2cc(Br)c3c(N)ncnc32)[C@@H]1O")
0
>>> group("CCN(Cc1ccccc1)c1ccc(C=O)cc1")
0
>>> group("OC(COc1ccccc1Cl)COc1ccccc1Cl")
1
>>> group("C=C1C(=O)O[C@H]2[C@H]1CC/C(COC(=O)c1ccc(Cl)nc1)=C\\CC[C@@]1(C)O[C@@H]21")
0
>>> group("COc1ccc2nc3cc(Cl)ccc3c(Nc3ccc(O)cc3)c2c1")
0
>>> group("COc1c(C(NC(=O)c2ccccc2)c2sccc2C)cc(Cl)c2cccnc12 (stereo unspecified)")
1
>>> group("CCNCCCn1c2c(c3ccc(F)cc3c1=O)C(=O)c1cc(OC)cnc1-2")
0
>>> group("OC(c1ccccc1)C(NC(Cc1ccccc1)c1ccccc1)c1ccccc1 (stereo unspecified)")
1
>>> group("CCN(CC)CCCNc1cccc2c(SCc3ccccc3)ccnc12")
1
>>> group("Oc1ccccc1-c1nc2c3ccccc3c3ccccc3c2o1")
1
>>> group("CC(C)Sc1nc(Nc2ccc(S(N)(=O)=O)cc2)c(C#N)c(-c2ccc(F)cc2)n1")
1
>>> group("CN(C=O)c1ccccc1")
1
>>> group("CC(=O)Nc1c(Br)cc2c(c1Br)Cc1cc(Br)ccc1-2")
0
>>> group("O=C(CCCCN1CCOCC1)Nc1ccc(Cn2nnc3c2C(=O)c2nnn(Cc4ccc(NC(=O)CCCCN5CCOCC5)cc4)c2C3=O)cc1")
0
>>> group("O=c1nc(N2CCOCC2)oc2c(-c3cccc4ccccc34)cccc12")
0
>>> group("CN(C)CCCN1c2ccccc2Sc2ccc(C(F)(F)F)cc21")
0
>>> group("CC(C)(C)OC(=O)NCc1cccc(N=C=S)c1")
0

----------
system: MDA-MB-468 breast; experiment: NCI-60 one-dose screen, 48 h (100 = growth as untreated, 0 = no growth, -100 = all killed); conditions: 10 µM unless noted
This is part of a sample that, as a whole, favours compounds with a hit. Of some 83,000 tested, about 20% had one in any assay.
test.readout: growth (%)

>>> quantitative_readout("Cc1ccc(NC(=O)N[C@@H](Cc2cc(F)cc(F)c2)C(=O)N[C@@H]2C(=O)N3CCC[C@H]3C(=O)N3CCCC[C@H]3C(=O)N[C@@H](C)C(=O)N3C[C@H](C)C[C@H]3C(=O)O[C@H]2C)cc1")
5.99
>>> quantitative_readout("COC(=O)[C@]12CC[C@@H](C)[C@H](C)[C@@H]1C1=CC[C@@H]3[C@@]4(C)CC(=O)[C@H](O)[C@@]5(C)COC(=C45)C[C@@]3(C)[C@]1(C)CC2")
-83.9
>>> quantitative_readout("BrC1CC(Br)c2c1c1c(c3c2C(Br)CC3Br)C(Br)CC1Br (stereo not given)")
79
>>> quantitative_readout("CSc1nnc2c(=O)n(C)c(=O)n(C)c2n1")
108
>>> quantitative_readout("CC(=O)c1c([Si](C)(C)C)c2cc(C#N)ccn2c1C(=O)c1ccc(Br)cc1")
79.9
